Cited source: patent US20230331803A1

assayedSystem: human amylin receptor (hAmyR3) (Homo sapiens, UniProt O60896+P30988)
Construct: host or cells: BHK cells (Hollex-1 line: human calcitonin receptor (a) + CRE-Luc), further transfected with human RAMP3
Sequence (P30988 25-474): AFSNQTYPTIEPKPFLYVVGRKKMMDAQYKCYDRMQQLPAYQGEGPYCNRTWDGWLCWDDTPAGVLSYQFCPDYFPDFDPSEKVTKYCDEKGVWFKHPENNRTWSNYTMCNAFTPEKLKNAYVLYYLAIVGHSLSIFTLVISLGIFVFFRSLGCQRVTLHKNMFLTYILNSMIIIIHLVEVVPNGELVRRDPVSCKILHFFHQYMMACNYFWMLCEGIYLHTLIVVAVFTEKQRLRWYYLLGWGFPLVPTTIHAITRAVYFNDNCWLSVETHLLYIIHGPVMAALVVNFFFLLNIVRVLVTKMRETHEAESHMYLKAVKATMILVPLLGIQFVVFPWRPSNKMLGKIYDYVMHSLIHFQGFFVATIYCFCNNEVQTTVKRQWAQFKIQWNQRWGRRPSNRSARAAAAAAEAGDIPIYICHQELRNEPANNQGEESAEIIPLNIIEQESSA
Sequence (O60896 24-148): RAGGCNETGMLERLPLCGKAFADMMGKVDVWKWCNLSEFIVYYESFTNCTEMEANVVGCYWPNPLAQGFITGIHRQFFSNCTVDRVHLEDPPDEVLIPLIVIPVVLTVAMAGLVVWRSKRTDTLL
protocolText: Human amylin receptor in vitro potency assay (CRE-luciferase reporter, BHK cells)
Format: cell-based
conditionLabel: Table 4c; further comparator compounds; read-out: Human AmyR3 potency [EC50 (pM)]
Starred links: 1 amine or outer side, 2 acyl side, 3 side chain; linkers in the order of their positions; H or OH if unused. Non-standard residues stand in square brackets, D forms with d. Groups on a side chain read outwards from the residue. *: point of attachment. C20 diacid = O=C(O)CCCCCCCCCCCCCCCCCCC(=O)*; C18 diacid = O=C(O)CCCCCCCCCCCCCCCCC(=O)*; γGlu = O=C(O)[C@H](CCC(=O)[*:2])N[*:1]; εLys = N[C@@H](CCCCN[*:1])C(=O)[*:2]; Trx = NC[C@H]1CC[C@H](C(=O)O)CC1; AEEA = NCCOCCOCC(=O)O; Aib = CC(C)(N)C(=O)O
EC50 overview
Answer with a number only, understood to be in pM.

Lab note: measured EC50 of H-Aib-EGTFTSDVSSYLEGQAA-K([2-[2-[2-[[2-[2-[2-[[(4S)-4-Carboxy-4-(17-Carboxyheptadecanoylamino)Butanoyl]Amino]Ethoxy]Ethoxy]Acetyl]Amino]Ethoxy]Ethoxy]Acetyl])-EFIAWLVRGRGGQEPGQEPCNTATCATQRLAEFLRHSSNNFGPILPPTNVGSNTP-amide [Comparator compound 0015, reference compound] was 312

Recorded EC50 (substance H-H[Aib]EGTFTSDVSSYLEEQAAREIFAWLVRGRK([AEEA-AEEA-γGlu-Trx-C20 diacid])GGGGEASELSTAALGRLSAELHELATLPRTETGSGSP-NH2 [Comparator compound 0167, reference compound] ): 10.9

Short answer for H-H[Aib]EGTFTSDVSSYLEGQAAKEFIAWLVRGRK([εLys-AEEA-AEEA-γGlu-C18 diacid])GGEASELSTAALGRPSAELHELATLPRTETGSGSP-NH2 [Comparator compound 0185, reference compound] : EC50 was 5660

Looking up H-H[Aib]EGTFTSDVSSYLEGQAAKEIFAWLVRGRK([εLys-AEEA-AEEA-γGlu-C18 diacid])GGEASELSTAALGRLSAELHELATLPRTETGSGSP-NH2 [Comparator compound 0164, reference compound] , I found its EC50 recorded as 29.6

* * *

Listed below: EC50 values for each entry.
assayedSystem: human amylin receptor (hAmyR3) (Homo sapiens, UniProt O60896+P30988)
Construct: host or cells: BHK cells (Hollex-1 line: human calcitonin receptor (a) + CRE-Luc), further transfected with human RAMP3
protocolText: Human amylin receptor in vitro potency assay (CRE-luciferase reporter, BHK cells)
Assay type: cell-based
conditionLabel: Table 4a; BHK hAmyR3/CRE-Luc cells, 3 hours; read-out: Human AmyR3 potency [EC50 (pM)]
Starred links: 1 amine or outer side, 2 acyl side, 3 side chain; linkers in the order of their positions; H or OH if unused. Non-standard residues stand in square brackets, D forms with d. Groups on a side chain read outwards from the residue. *: point of attachment. Butyryl(4-SO2NHCO(CH2)16Tz) = O=C(CCCCCCCCCCCCCCCCc1nnn[nH]1)NS(=O)(=O)CCCC(=O)*; C20 diacid = O=C(O)CCCCCCCCCCCCCCCCCCC(=O)*; C18 diacid = O=C(O)CCCCCCCCCCCCCCCCC(=O)*; C16 diacid = O=C(O)CCCCCCCCCCCCCCC(=O)*; γGlu = O=C(O)[C@H](CCC(=O)[*:2])N[*:1]; Trx = NC[C@H]1CC[C@H](C(=O)O)CC1; AEEA = NCCOCCOCC(=O)O; Aib = CC(C)(N)C(=O)O
# output: bare number, implied unit pM

Consider the following illustrative entries.
substance	assayedSystem	unitTag	EC50
H-H[Aib]EGTFTSDVSSYLEEK([AEEA-AEEA-γGlu-C16 diacid])AAREFIAWLVRGRGGGGGEASELSTAALGRLSAELHELATLPRTETGK([AEEA-AEEA-γGlu-C16 diacid])GSP-NH2 [Compound 0411]	human amylin receptor (hAmyR3) (Homo sapiens, UniProt O60896+P30988)	pM	45.9
H-H[Aib]EGTFTSDVSSYLEEK([AEEA-AEEA-γGlu-C16 diacid])AAREFIAWLVRGRGGGGGEASELSTAALGRLSAELHK([AEEA-AEEA-γGlu-C16 diacid])LATLPRTETGSGSP-NH2 [Compound 0299]	human amylin receptor (hAmyR3) (Homo sapiens, UniProt O60896+P30988)	pM	11.5
H-H[Aib]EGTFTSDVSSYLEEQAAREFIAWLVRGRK([AEEA-AEEA-γGlu-Trx-C20 diacid])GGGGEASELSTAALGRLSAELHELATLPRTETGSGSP-NH2 [Compound 0120]	human amylin receptor (hAmyR3) (Homo sapiens, UniProt O60896+P30988)	pM	10.6
HWEGTFTSD-K([(2S)-2-Amino-6-[[2-[2-[2-[[2-[2-[2-[[(4S)-4-Carboxy-4-[[4-[(19-Carboxynonadecanoylamino)Methyl]Cyclohexanecarbonyl]Amino]Butanoyl]Amino]Ethoxy]Ethoxy]Acetyl]Amino]Ethoxy]Ethoxy]Acetyl]Amino]Hex Anoyl])-SSYLEEQAAREFIEWLVRGRGEASELSTAALGRLSAELHELATLPRTETGSGSP-amide [Compound 0433]	human amylin receptor (hAmyR3) (Homo sapiens, UniProt O60896+P30988)	pM	12.9
H-H[Aib]EGTFTSDVSK([AEEA-AEEA-γGlu-C16 diacid])YLEEQAARK([AEEA-AEEA-γGlu-C16 diacid])FIAWLVRGRQEASELSTAALGRLSAELHELATLPRTETGSGSP-NH2 [Compound 0578]	human amylin receptor (hAmyR3) (Homo sapiens, UniProt O60896+P30988)	pM	26.9

Value (EC50, human amylin receptor (hAmyR3) (Homo sapiens, UniProt O60896+P30988)) for record H-H[Aib]EGTFTSDVSSYLEGQAAK([AEEA-AEEA-γGlu-C18 diacid])EFIAWLVRGRGQAPGQEPEASELSTAALGRLSAELHELATLPRTETGSGSP-NH2 [Compound 0156] = 22.6

Lab note: substance HWEGTFTSDVSSYLEEK([AEEA-AEEA-γGlu-C20 diacid])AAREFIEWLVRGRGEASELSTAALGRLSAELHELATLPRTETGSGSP-NH2 [Compound 0473] tested on human amylin receptor (hAmyR3) (Homo sapiens, UniProt O60896+P30988); recorded EC50 was 16.2

human amylin receptor (hAmyR3) (Homo sapiens, UniProt O60896+P30988) data for H-H[Aib]EGTFTSDVSSYLEGQAAREFIAWLVRGRGQEPGQAPK([AEEA-AEEA-γGlu-C18 diacid])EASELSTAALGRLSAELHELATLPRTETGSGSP-NH2 [Compound 0085] ; its EC50: 55.8

With human amylin receptor (hAmyR3) (Homo sapiens, UniProt O60896+P30988) as the test system, H-H[Aib]EGTFTSDVSSYLEEQAAREFIEWLVRGK(Butyryl(4-SO2NHCO(CH2)16Tz))GGGASELSTAALGRLSAELHELATLPRTETGSGSP-NH2 [Compound 0146] showed EC50 of 14

Entry H-HAEGTFTSDVSSYLEEK([AEEA-AEEA-γGlu-Trx-C20 diacid])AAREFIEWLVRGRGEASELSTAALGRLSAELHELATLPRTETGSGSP-NH2 [Compound 0414] , tested on human amylin receptor (hAmyR3) (Homo sapiens, UniProt O60896+P30988), has a reported EC50 of 17.7

The substance H-HAEGTFTSDVSSYLEEK([AEEA-AEEA-γGlu-C20 diacid])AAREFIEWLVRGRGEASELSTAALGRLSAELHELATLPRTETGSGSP-NH2 [Compound 0474] , when measured on human amylin receptor (hAmyR3) (Homo sapiens, UniProt O60896+P30988), yielded EC50 of 21.8

* * *

assayedSystem: human amylin receptor (hAmyR3) (Homo sapiens, UniProt O60896+P30988)
Construct: host or cells: BHK cells (Hollex-1 line: human calcitonin receptor (a) + CRE-Luc), further transfected with human RAMP3
protocolText: Human amylin receptor in vitro potency assay (CRE-luciferase reporter, BHK cells);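 also: BHK cells expressing human calcitonin receptor plus RAMP3 (amylin-3 receptor) with a CRE-luciferase reporter, agonist activity read as luminescence from cAMP-driven transcription, 7-point serial dilutions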
Format: cell-based
Starred links: 1 amine or outer side, 2 acyl side, 3 side chain; linkers in the order of their positions; H or OH if unused. Positions of bridges follow the written chain, without caps; N, C: chain ends. Non-standard residues stand in square brackets, D forms with d. Groups on a side chain read outwards from the residue. *: point of attachment. Undecanoyl(11-OPh(4-COOH)) = O=C(O)c1ccc(OCCCCCCCCCCC(=O)*)cc1; Decanoyl(10-(4-HOOC-PhO)) = O=C(O)c1ccc(OCCCCCCCCCC(=O)*)cc1; C18 diacid = O=C(O)CCCCCCCCCCCCCCCCC(=O)*; γGlu = O=C(O)[C@H](CCC(=O)[*:2])N[*:1]; εLys = N[C@@H](CCCCN[*:1])C(=O)[*:2]; AEEA = NCCOCCOCC(=O)O; Aib = CC(C)(N)C(=O)O
measuredQuantity: pEC50
Reminder that pEC50 is minus the log10 of a molar concentration.

Example results:
substance	assayedSystem	pEC50
H-H[Aib]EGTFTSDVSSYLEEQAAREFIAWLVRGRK([AEEA-AEEA-γGlu-C18 diacid])GGGGEKCNTATCATQRLANFLVHSSNNFGPILPPTNVGSNTY-NH2 (disulfide 38-43 (inferred)) [Comparator compound 0671, reference compound]	human amylin receptor (hAmyR3) (Homo sapiens, UniProt O60896+P30988)	9.64
H-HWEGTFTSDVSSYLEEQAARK([AEEA-AEEA-γGlu-Decanoyl(10-(4-HOOC-PhO))])FIEWLVRGRGEGGGGGASELSTAALGRLSAELHELK([AEEA-AEEA-γGlu-Decanoyl(10-(4-HOOC-PhO))])TLPRTETGSGSP-NH2 [Compound 0232]	human amylin receptor (hAmyR3) (Homo sapiens, UniProt O60896+P30988)	10.13
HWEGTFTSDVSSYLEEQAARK([AEEA-AEEA-γGlu-Decanoyl(10-(4-HOOC-PhO))])FIEWLVRGK([AEEA-AEEA-γGlu-Decanoyl(10-(4-HOOC-PhO))])GEGGGGGEASELSTAALGRLSAELHELATLPRTETGSGSP-NH2 [Compound 0100]	human amylin receptor (hAmyR3) (Homo sapiens, UniProt O60896+P30988)	10.52
H-HWEGTFTSDVSSYLEEQAAREFIEWLVRGK([AEEA-AEEA-γGlu-Decanoyl(10-(4-HOOC-PhO))])GEGGGGGASELSTAALGRLSK([AEEA-AEEA-γGlu-Decanoyl(10-(4-HOOC-PhO))])ELHELATLPRTETGSGSP-NH2 [Compound 0233]	human amylin receptor (hAmyR3) (Homo sapiens, UniProt O60896+P30988)	9.74
H-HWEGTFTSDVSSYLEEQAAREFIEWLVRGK([AEEA-AEEA-γGlu-Decanoyl(10-(4-HOOC-PhO))])GEGGGGGASELSTAALGRLSAELHELK([AEEA-AEEA-γGlu-Decanoyl(10-(4-HOOC-PhO))])TLPRTETGSGSP-NH2 [Compound 0234]	human amylin receptor (hAmyR3) (Homo sapiens, UniProt O60896+P30988)	10.42

pEC50 of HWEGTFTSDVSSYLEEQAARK([AEEA-AEEA-γGlu-Decanoyl(10-(4-HOOC-PhO))])FIEWLVRGK([AEEA-AEEA-γGlu-Decanoyl(10-(4-HOOC-PhO))])GEGGGGGGGGGEASELSTAALGRLSAELHELATLPRTETGSGSP-NH2 [Compound 0101] , assay on human amylin receptor (hAmyR3) (Homo sapiens, UniProt O60896+P30988), is 10.99

Given the substance HGEGTFTSDVSSYLEEQAARK([AEEA-AEEA-γGlu-Decanoyl(10-(4-HOOC-PhO))])FIEWLVRGK([AEEA-AEEA-γGlu-Decanoyl(10-(4-HOOC-PhO))])GEGGGGGGGGGEASELSTAALGRLSAELHELATLPRTETGSGSP-NH2 [Compound 0098] and test system human amylin receptor (hAmyR3) (Homo sapiens, UniProt O60896+P30988), the measured pEC50 is 10.81

Entry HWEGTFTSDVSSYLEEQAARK([AEEA-AEEA-γGlu-Decanoyl(10-(4-HOOC-PhO))])FIEWLVRGK([AEEA-AEEA-γGlu-Decanoyl(10-(4-HOOC-PhO))])GEGEASELSTAALGRLSAELHELATLPRTETGSGSP-NH2 [Compound 0099] under human amylin receptor (hAmyR3) (Homo sapiens, UniProt O60896+P30988) had pEC50 of 10.35

Entry H-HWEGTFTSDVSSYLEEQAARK([AEEA-AEEA-γGlu-Decanoyl(10-(4-HOOC-PhO))])FIEWLVRGRGEGGGGGASELSTAALGRLSK([AEEA-AEEA-γGlu-Decanoyl(10-(4-HOOC-PhO))])ELHELATLPRTETGSGSP-NH2 [Compound 0231] : pEC50 on human amylin receptor (hAmyR3) (Homo sapiens, UniProt O60896+P30988) = 10.17

The reported human amylin receptor (hAmyR3) (Homo sapiens, UniProt O60896+P30988) pEC50 of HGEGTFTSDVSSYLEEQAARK([AEEA-AEEA-γGlu-Decanoyl(10-(4-HOOC-PhO))])FIEWLVRGK([AEEA-AEEA-γGlu-Decanoyl(10-(4-HOOC-PhO))])GEGGGGGEASELSTAALGRLSAELHELATLPRTETGSGSP-NH2 [Compound 0097] is 10.03

Lab entry: human amylin receptor (hAmyR3) (Homo sapiens, UniProt O60896+P30988) assay, substance H-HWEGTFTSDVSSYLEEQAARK([AEEA-AEEA-γGlu-Undecanoyl(11-OPh(4-COOH))])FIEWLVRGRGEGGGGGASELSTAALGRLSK([AEEA-AEEA-γGlu-Undecanoyl(11-OPh(4-COOH))])ELHELATLPRTETGSGSP-NH2 [Compound 0255] , pEC50 = 10.54

H[Aib]EGTFTSDVSSYLEEQAARK([εLys-AEEA-AEEA-γGlu-C18 diacid])FIAWLVRGK([εLys-AEEA-AEEA-γGlu-C18 diacid])GGGGGGGGGEASELSTAALGRLSAELHELATLPRTETGSGSP-NH2 [Compound 0110] on human amylin receptor (hAmyR3) (Homo sapiens, UniProt O60896+P30988) gives pEC50 = 10.39
